assay.explanation: Tmax in anesthetized C57BL/6J mouse brain at 5 mg/kg, ip administered as single dose measured upto 240 mins by LC-MS/MS analysis
Assay type: ADME, organism-based
quantity.kind: Tmax

The compound identified as C=C(C)[C@@H]1CCC(C)=C[C@H]1c1c(O)cc(CCC)c(C(=O)O)c1O registered its Tmax at 30 min

###

assay.explanation: Half life in anesthetized C57BL/6J mouse brain at 5 mg/kg, ip administered as single dose measured upto 240 mins by LC-MS/MS analysis
Format: ADME, organism-based
quantity.kind: half-life (min)
# number only, unit min dropped from output

The compound identified as C=C(C)[C@@H]1CCC(C)=C[C@H]1c1c(O)cc(CCC)c(C(=O)O)c1O registered its half-life at 19
